- Measurement notes: LNCaP cell loss by flow event count, confirmation, cytotoxicity control for prostate differentiation activator project, single point (AID 1076);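 also: counts scatter-gated live cells after medium removal discards detached dead cells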
- Test context: flow cytometry event count, 4 d, event count, at 10 µM, stronger effect = lower value
Values of cell event count strictly less than 100 map to true (1), and values of at least 100 map to false (0).

**Query** Answer whether the compound "Cc1ccccc1-c1nc(CN2CCC(C(=O)NCc3ccco3)CC2)c(C)o1" has cell event count strictly less than 100
**Result** false (0)

**Query** Answer whether the compound "Cc1cc(=O)oc(C)c1C(=O)NCCCN1CCN(c2ccccc2F)CC1" has cell event count strictly less than 100
**Result** false (0)

**Query** Answer whether the compound CCCS(=O)(=O)N1CCCC(C(=O)NCCCN2CCN(c3ccc(F)cc3)CC2)C1 (stereo not given) has cell event count strictly less than 100
**Result** true (1)

**Query** Answer whether the compound CCn1c(=N)n(CC(O)COc2cccc(C)c2)c2ccccc21 (stereo not given) has cell event count strictly less than 100
**Result** true (1)

**Query** Answer whether the compound "Cc1noc(/C=C/c2ccco2)c1S(=O)(=O)N1CCC(C(=O)N2CCc3ccccc3C2)CC1" has cell event count strictly less than 100
**Result** false (0)

**Query** Answer whether the compound "COc1ccc(N2CCN(CCCNC(=O)CN3CCN(Cc4ccccc4C)C3=O)CC2)cc1" has cell event count strictly less than 100
**Result** true (1)

**Query** Answer whether the compound Cc1ccc(C)c(N2CCN(CCCNC(=O)Cn3cc4c(n3)CCC(C)C4)CC2)c1 (stereo not given) has cell event count strictly less than 100
**Result** false (0)

**Query** Answer whether the compound "CCOc1cccc2cc(-c3cn4cc(C)ccc4n3)c(=O)oc12" has cell event count strictly less than 100
**Result** false (0)

**Query** Answer whether the compound "COc1cccc(Oc2cnc(N)nc2-c2ccc(OC)cc2O)c1" has cell event count strictly less than 100
**Result** false (0)

**Query** Answer whether the compound "O=C(Nc1ccc2oc(Cc3ccc(Cl)cc3)nc2c1)c1cccnc1" has cell event count strictly less than 100
**Result** true (1)
